# reported Kd; entries follow
- target-or-system: T1, biotin-Aβ1-20 (biotin (position not given))
- T1 peptide: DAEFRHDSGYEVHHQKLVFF
- method-description: BIACORE, biotin-Aβ1-20 as antigen; column Fab
Your answer is read as nM, so omit the unit and give the number.

// worked examples, Kd included
20C2-6A Fab fragment (clone 4P1-22) (Fab, V domains shown) VH: QVTLKESGPALVKPTQTLTLTCTFSGFSLSTSGMGVGWIRQPPGKALEWLAHIWWDDDKSYNPSLKSRLTISKDTSKNQVVLTMTNMDPVDTATYYCARRQLGLRSIDAMDYWGQGTTVTVSS VL: DVVMTQSPLSLPVTPGEPASISCRSSQSILHSNGNTYLEWYLQKPGQSPQLLIYKVSNRFSGVPDRFSGSGSGTDFTLKISRVEAEDVGVYYCFQSSRVPLTFGQGTKLEIKR | 18
20C2-9A Fab fragment (clone SJ-p2-51) (Fab, V domains shown) VH: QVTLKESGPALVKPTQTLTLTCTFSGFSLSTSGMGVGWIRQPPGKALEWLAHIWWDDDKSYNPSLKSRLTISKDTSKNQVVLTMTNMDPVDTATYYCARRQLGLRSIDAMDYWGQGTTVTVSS VL: DVVMTQSPLSLPVTPGEPASISCRSSQSILHSNGNTYLEWYLQKPGQSPQLLIYKVSNRFSGVPDRFSGSGSGTDFTLKISRVEAEDVGVYYCVQTSLVPLTFGQGTKLEIKR | 36

Let us examine a further case.
Prompt: Sample 20C2-12A Fab fragment (clone 4P1-32) (Fab, V domains shown) VH: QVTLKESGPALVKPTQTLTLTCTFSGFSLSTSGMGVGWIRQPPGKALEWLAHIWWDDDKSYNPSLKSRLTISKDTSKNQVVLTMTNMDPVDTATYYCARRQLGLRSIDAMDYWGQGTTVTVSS VL: DVVMTQSPLSLPVTPGEPASISCRSSQSILHSNGNTYLEWYLQKPGQSPQLLIYKVSNRFSGVPDRFSGSGSGTDFTLKISRVEAEDVGVYYCLQSSLVPLTFGQGTKLEIKR — what was its Kd?
Response: 617
